Ref: patent US20180171001A1

Give measured neutralization IC50 for each item. Keep answers brief.
# Study target: Env of HIV-1 strain ZM53M.PB12 (HIV-1)
# Protocol text: cell-based or functional assay

**Query** Query neutralization IC50 for 8ANC3044 (antibody, V domains shown) VH: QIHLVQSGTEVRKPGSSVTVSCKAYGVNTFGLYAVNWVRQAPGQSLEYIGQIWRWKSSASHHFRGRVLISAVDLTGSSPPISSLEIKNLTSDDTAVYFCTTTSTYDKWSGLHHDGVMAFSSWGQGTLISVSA VL: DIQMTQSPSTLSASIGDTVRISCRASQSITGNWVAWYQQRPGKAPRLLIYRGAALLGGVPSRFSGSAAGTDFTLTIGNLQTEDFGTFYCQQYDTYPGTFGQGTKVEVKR
**Result** 15.2 µg/mL

**Query** Tell me neutralization IC50 reported for γ8κ3 (antibody, V domains shown) VH: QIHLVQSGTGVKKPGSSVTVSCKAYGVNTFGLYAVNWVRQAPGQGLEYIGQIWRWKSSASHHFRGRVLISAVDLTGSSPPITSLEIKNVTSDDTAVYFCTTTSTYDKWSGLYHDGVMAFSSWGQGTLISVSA VL: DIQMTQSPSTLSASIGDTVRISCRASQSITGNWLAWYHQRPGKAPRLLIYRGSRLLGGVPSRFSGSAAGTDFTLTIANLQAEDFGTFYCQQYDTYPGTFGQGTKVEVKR
**Result** > 15 µg/mL

**Query** State, in one line, measured neutralization IC50 of γ20κ19 (antibody, V domains shown) VH: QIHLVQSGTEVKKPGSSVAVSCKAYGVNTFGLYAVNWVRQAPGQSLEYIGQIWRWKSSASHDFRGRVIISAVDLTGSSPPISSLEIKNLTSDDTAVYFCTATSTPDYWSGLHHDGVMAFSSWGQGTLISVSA VL: DIQMTQSPSTLSASVGDTVRISCRASQSITGGWLAWYHQRPGKAPRLLIYRGSRLLGGVPSRFSGSAAGTGFTLTIANLQAEDFGTFYCQQYDTYPGTFGQGTKVEVKR
**Result** > 15 µg/mL
